protocolNotes: Microsomal stability, rat (RLM)
Type: in vitro ADME
experimentalConditions: liver microsomes; rat microsomes; read-out: t½
observedProperty: half-life
Quick note: number first, unit second.

CCC1CCCCN1c1cc(C)nc2nc(-c3ccc(C)cc3)nn12 (stereo not shown) | 17.4 min

Entry "COc1cccc(-c2oncc2CN2CCN(C(C)=O)CC2)c1" , half-life reported as 81.5 min

Entry "CCn1c(=O)c(-c2ccc(-c3nc(C)c[nH]3)cc2Cl)cc2cnc(Nc3ccc(N4CCN(C)CC4)cc3)nc21" , half-life reported as 147 min

Entry "CSc1ccc(-c2nc3cccc(C)n3c2Nc2ccc3c(c2)OCCO3)cc1" , half-life reported as 1.51 min

* * *

protocolNotes: Pharmacokinetic (PK) assessment in rats
Format: in vivo
experimentalConditions: rat, plasma, PO, 30 mg/kg
observedProperty: Tmax (h)
Answer with a number only, understood to be in h.

Entry "CCn1c(=O)c(-c2ccc(-c3nc(C)c[nH]3)cc2Cl)cc2cnc(Nc3ccc(N4CCN(C)CC4)cc3)nc21" , Tmax reported as 8

* * *

protocolNotes: Pharmacokinetic (PK) assessment in rats
Assay type: in vivo
experimentalConditions: rat, plasma, PO, 10 mg/kg, mean, read-out: MRTlast
observedProperty: MRT last (h)
Answer with a number only, understood to be in h.

CCC1CCCCN1c1cc(C)nc2nc(-c3ccc(C)cc3)nn12 (stereo not drawn) | 2.52
CSc1ccc(-c2nc3cccc(C)n3c2Nc2ccc3c(c2)OCCO3)cc1 | 3.97

Now look at this entry.
Entry "COc1cccc(-c2oncc2CN2CCN(C(C)=O)CC2)c1" , MRT last reported as 0.75

* * *

protocolNotes: Pharmacokinetic (PK) assessment in rats
Assay type: in vivo
experimentalConditions: rat, plasma, iv, 2 mg/kg, IV, 2 mg/kg, mean, read-out: AUClast
Below: a set of entries, each annotated with reported AUC(0-t).
Answer with a number only, understood to be in ng·h/mL.

// known answers, use as guide
CSc1ccc(-c2nc3cccc(C)n3c2Nc2ccc3c(c2)OCCO3)cc1 | 129
COc1cccc(-c2oncc2CN2CCN(C(C)=O)CC2)c1 | 909

Now look at this entry.
Entry CCC1CCCCN1c1cc(C)nc2nc(-c3ccc(C)cc3)nn12 (stereo not drawn) , AUC(0-t) reported as 695

* * *

protocolNotes: Microsomal stability, human (HLM)
Type: in vitro ADME
experimentalConditions: liver microsomes; human microsomes; read-out: t½
Below: a set of entries, each annotated with reported half-life.
Answer with a number only, understood to be in min.

// known answers, use as guide
COc1cccc(-c2oncc2CN2CCN(C(C)=O)CC2)c1 | 71.4
CCn1c(=O)c(-c2ccc(-c3nc(C)c[nH]3)cc2Cl)cc2cnc(Nc3ccc(N4CCN(C)CC4)cc3)nc21 | 119

Entry CCC1CCCCN1c1cc(C)nc2nc(-c3ccc(C)cc3)nn12 (stereo not shown) , half-life reported as 24.3

Entry "CSc1ccc(-c2nc3cccc(C)n3c2Nc2ccc3c(c2)OCCO3)cc1" , half-life reported as 13.9

* * *

protocolNotes: Pharmacokinetic (PK) assessment in rats
Format: in vivo
experimentalConditions: rat, plasma, po, 30 mg/kg, PO, 30 mg/kg, read-out: AUC0→t AUC last
observedProperty: AUC(0-t)

Entry "CCn1c(=O)c(-c2ccc(-c3nc(C)c[nH]3)cc2Cl)cc2cnc(Nc3ccc(N4CCN(C)CC4)cc3)nc21" , AUC(0-t) reported as 12600 ng·h/mL

* * *

protocolNotes: Pharmacokinetic (PK) assessment in rats
Assay type: in vivo
experimentalConditions: rat, plasma, IV, 3 mg/kg
observedProperty: Cmax

Entry CCn1c(=O)c(-c2ccc(-c3nc(C)c[nH]3)cc2Cl)cc2cnc(Nc3ccc(N4CCN(C)CC4)cc3)nc21 [Compound 42-0125_1] , Cmax reported as 3620 ng/mL

* * *

protocolNotes: Pharmacokinetic (PK) assessment in rats
Format: in vivo
experimentalConditions: rat, plasma, IV, 2 mg/kg, mean, read-out: MRTlast
observedProperty: MRT last (h)
Answer with a number only, understood to be in h.

// known answers, use as guide
CSc1ccc(-c2nc3cccc(C)n3c2Nc2ccc3c(c2)OCCO3)cc1 | 6.51
COc1cccc(-c2oncc2CN2CCN(C(C)=O)CC2)c1 | 0.29

Now look at this entry.
Entry CCC1CCCCN1c1cc(C)nc2nc(-c3ccc(C)cc3)nn12 (stereo not drawn) , MRT last reported as 1.46

* * *

protocolNotes: Caco-2 permeability
Type: in vitro ADME
experimentalConditions: human, Caco-2; read-out: Assym index
observedProperty: efflux ratio
Write no unit; give the number alone.

Entry "CCn1c(=O)c(-c2ccc(-c3nc(C)c[nH]3)cc2Cl)cc2cnc(Nc3ccc(N4CCN(C)CC4)cc3)nc21" , efflux ratio reported as 1

* * *

protocolNotes: Pharmacokinetic (PK) assessment in rats
Type: in vivo
experimentalConditions: rat, plasma, po, 10 mg/kg, PO, 10 mg/kg, mean, read-out: AUClast
Below: a set of entries, each annotated with reported AUC(0-t).
Answer with a number only, understood to be in ng·h/mL.

// known answers, use as guide
CSc1ccc(-c2nc3cccc(C)n3c2Nc2ccc3c(c2)OCCO3)cc1 | 92.7
CCC1CCCCN1c1cc(C)nc2nc(-c3ccc(C)cc3)nn12 (stereo not drawn) | 315

Now look at this entry.
Entry "COc1cccc(-c2oncc2CN2CCN(C(C)=O)CC2)c1" , AUC(0-t) reported as 171

* * *

protocolNotes: Pharmacokinetic (PK) assessment in rats
Format: in vivo
experimentalConditions: rat, plasma, iv, 3 mg/kg, IV, 3 mg/kg, read-out: AUC0→t AUC last
observedProperty: AUC(0-t) (ng·h/mL)
Answer with a number only, understood to be in ng·h/mL.

Entry "CCn1c(=O)c(-c2ccc(-c3nc(C)c[nH]3)cc2Cl)cc2cnc(Nc3ccc(N4CCN(C)CC4)cc3)nc21" , AUC(0-t) reported as 9750

* * *

protocolNotes: Pharmacokinetic (PK) assessment in rats
Assay type: in vivo
experimentalConditions: rat, plasma, IV, 3 mg/kg, read-out: T ½ HL_Lambda_z (converted)
observedProperty: half-life (h)
Answer with a number only, understood to be in h.

Entry "CCn1c(=O)c(-c2ccc(-c3nc(C)c[nH]3)cc2Cl)cc2cnc(Nc3ccc(N4CCN(C)CC4)cc3)nc21" , half-life reported as 5

* * *

protocolNotes: Pharmacokinetic (PK) assessment in rats
Assay type: in vivo
experimentalConditions: rat, plasma, IV, 2 mg/kg, mean
Below: a set of entries, each annotated with reported Tmax.
Answer with a number only, understood to be in min.

// known answers, use as guide
CCC1CCCCN1c1cc(C)nc2nc(-c3ccc(C)cc3)nn12 (stereo not drawn) | 4.8
COc1cccc(-c2oncc2CN2CCN(C(C)=O)CC2)c1 | 4.8

Now look at this entry.
Entry "CSc1ccc(-c2nc3cccc(C)n3c2Nc2ccc3c(c2)OCCO3)cc1" , Tmax reported as 4.8

* * *

protocolNotes: Solubility assessment
Type: physicochemical
experimentalConditions: aqueous buffer, kinetic from dmso stock; UB pH 2, 1% DMSO; read-out: Solubility in UB pH 2, 1% DMSO
observedProperty: solubility (µM)
Answer with a number only, understood to be in µM.

Entry CCn1c(=O)c(-c2ccc(-c3nc(C)c[nH]3)cc2Cl)cc2cnc(Nc3ccc(N4CCN(C)CC4)cc3)nc21 [Compound 42-0125_1] , solubility reported as 59

* * *

Below: a set of entries, each annotated with reported Vd.
protocolNotes: Pharmacokinetic (PK) assessment in rats
Format: in vivo
experimentalConditions: rat, plasma, iv, 2 mg/kg, IV, 2 mg/kg, mean, read-out: Vz
Answer with a number only, understood to be in L/kg.

// known answers, use as guide
COc1cccc(-c2oncc2CN2CCN(C(C)=O)CC2)c1 | 0.73
CSc1ccc(-c2nc3cccc(C)n3c2Nc2ccc3c(c2)OCCO3)cc1 | 197

Entry CCC1CCCCN1c1cc(C)nc2nc(-c3ccc(C)cc3)nn12 (stereo not drawn) , Vd reported as 6.74

* * *

Below: a set of entries, each annotated with reported MRT inf.
protocolNotes: Pharmacokinetic (PK) assessment in rats
Type: in vivo
experimentalConditions: rat, plasma, IV, 2 mg/kg, mean
Answer with a number only, understood to be in h.

// known answers, use as guide
CSc1ccc(-c2nc3cccc(C)n3c2Nc2ccc3c(c2)OCCO3)cc1 | 12.3
COc1cccc(-c2oncc2CN2CCN(C(C)=O)CC2)c1 | 0.3

Now look at this entry.
Entry CCC1CCCCN1c1cc(C)nc2nc(-c3ccc(C)cc3)nn12 (stereo not drawn) , MRT inf reported as 1.69

* * *

protocolNotes: Pharmacokinetic (PK) assessment in rats
Type: in vivo
experimentalConditions: rat, plasma, IV, 2 mg/kg, mean, read-out: T ½ (converted)
observedProperty: half-life
Quick note: number first, unit second.

COc1cccc(-c2oncc2CN2CCN(C(C)=O)CC2)c1 | 0.23 h

Entry "CSc1ccc(-c2nc3cccc(C)n3c2Nc2ccc3c(c2)OCCO3)cc1" , half-life reported as 10.6 h

Entry CCC1CCCCN1c1cc(C)nc2nc(-c3ccc(C)cc3)nn12 (stereo not drawn) , half-life reported as 1.66 h
